methodNotes: Half life in rat plasma at pH 7.4 by LC-MS/MS analysis
Format: ADME, cell-free
Square brackets hold non-standard residues; d marks the D form. Peptide text beside a SMILES is read from it. Nle = CCCC[C@H](N)C(=O)O
assayMetric: half-life (min)
Respond numerically; units are min and should not be typed.

Fill in reported half-life for this entry: CCCC[C@H](NC(=O)[C@H](C)NC(=O)[C@H](C)NC(=O)[C@H](CC(C)C)NC(=O)[C@H](CCCC)NC(=O)[C@@H]1CCCN1C(=O)[C@H](CCCNC(=N)N)NC(C)=O)C(=O)NCC(=O)N1CCC[C@H]1C(=O)N[C@@H](CC(C)C)C(N)=O (Ac-RP[Nle]LAA[Nle]GPL-NH2)
2

* * *

targetDesc: Apelin receptor (Homo sapiens)
Sequence (P35414 whole entry): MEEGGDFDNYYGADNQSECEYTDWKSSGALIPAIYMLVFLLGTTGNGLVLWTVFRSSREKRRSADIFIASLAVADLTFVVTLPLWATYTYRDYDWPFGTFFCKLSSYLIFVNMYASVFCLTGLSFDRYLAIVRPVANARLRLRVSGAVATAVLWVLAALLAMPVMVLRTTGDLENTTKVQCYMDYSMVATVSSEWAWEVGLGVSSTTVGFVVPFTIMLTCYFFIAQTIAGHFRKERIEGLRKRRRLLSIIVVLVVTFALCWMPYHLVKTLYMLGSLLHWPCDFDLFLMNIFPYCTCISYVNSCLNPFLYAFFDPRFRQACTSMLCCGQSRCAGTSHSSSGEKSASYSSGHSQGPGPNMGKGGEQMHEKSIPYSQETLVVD
methodNotes: Agonist activity at APJ receptor (unknown origin) expressed in CHO cells co-expressing with Calphaq16 assessed as calcium mobilization
Format: functional, cell-based
setupConditions: read-out: EC50
assayMetric: pEC50
To interpret pEC50, take it as minus log10 of a concentration measured in moles per litre.

Fill in reported pEC50 for this entry: `Ac-RPALAAKGPL-NH2`
8.05

Fill in reported pEC50 for this entry: `Ac-RPRLSHKGPL-NH2`
8.72

Fill in reported pEC50 for this entry: `Ac-KPRLAAKGPL-NH2`
6.31

Fill in reported pEC50 for this entry: `Ac-RPKFAAKGPL-NH2`
7.36

Fill in reported pEC50 for this entry: `Ac-RPRLAAAGPL-NH2`
6.20

Next:
Fill in reported pEC50 for this entry: `Ac-RPRLAAKGAL-NH2`
6.63

Fill in reported pEC50 for this entry: `Ac-RPRLAAKGPL-NH2`
8.96

Data provenance: ChEMBL document CHEMBL3259718
